# Test system: Psilocybin Induced Head Twitches in Mice
# METHOD_NOTES: Psilocybin-induced head-twitch response in mice, 5-HT2A antagonist given i.v. after psilocybin
# Format: in vivo, C57BL/6J mice
# CONDITION: antagonist 1 mg/kg i.v. 7 min after psilocybin 2 mg/kg i.p.; monitored until 40 min
READOUT_LABEL: suppression of psilocybin-induced head-twitch response

COMPOUND	TARGET	EXPERIMENTAL_VALUE
COc1ccc(NC(=O)Nc2ccc(F)cc2F)cc1-c1c(Br)cnn1C [nelotanserin]	Psilocybin Induced Head Twitches in Mice	partially suppressed
COc1cccc([C@H](O)C2CCN(CCc3ccc(F)cc3)CC2)c1OC [volinanserin]	Psilocybin Induced Head Twitches in Mice	completely suppressed
Cc1nc2sccn2c(=O)c1CCN1CCC(=C(c2ccc(F)cc2)c2ccc(F)cc2)CC1 [ritanserin]	Psilocybin Induced Head Twitches in Mice	completely suppressed
O=c1[nH]c2ccccc2n1CCN1CCN(c2cccc(C(F)(F)F)c2)CC1 [flibanserin]	Psilocybin Induced Head Twitches in Mice	partially suppressed
N#Cc1c[nH]c2c(C(=O)N3CCN(CCc4ccc(F)cc4)CC3)cccc12 [pruvanserin]	Psilocybin Induced Head Twitches in Mice	completely suppressed

----------
# METHOD_NOTES: Estimated solubilities of psilocybin (solvent aliquot addition, visual inspection)
# Type: physicochemical
# CONDITION: organic solvent or mixture, thermodynamic from solid, Dichloromethane (DCM), room temperature

COMPOUND	solubility
CN(C)CCc1c[nH]c2cccc(OP(=O)(O)O)c12 [psilocybin]	< 1000 µg/mL

----------
# METHOD_NOTES: Estimated solubilities of psilocybin (solvent aliquot addition, visual inspection)
# Type: physicochemical
# CONDITION: organic solvent or mixture, thermodynamic from solid, 1,4-dioxane, room temperature

SUBSTANCE_SMILES	solubility
CN(C)CCc1c[nH]c2cccc(OP(=O)(O)O)c12	< 1000 µg/mL

----------
# METHOD_NOTES: Estimated solubilities of psilocybin (solvent aliquot addition, visual inspection)
# Format: physicochemical
# CONDITION: organic solvent or mixture, thermodynamic from solid, Tetrahydrofuran (THF), room temperature

SUBSTANCE_SMILES	solubility
CN(C)CCc1c[nH]c2cccc(OP(=O)(O)O)c12	< 1000 µg/mL

----------
# METHOD_NOTES: Estimated solubilities of psilocybin (solvent aliquot addition, visual inspection)
# Assay type: physicochemical
# CONDITION: thermodynamic from solid, Water, room temperature

SUBSTANCE_SMILES	solubility, µg/mL
CN(C)CCc1c[nH]c2cccc(OP(=O)(O)O)c12	4000

----------
# METHOD_NOTES: Estimated solubilities of psilocybin (solvent aliquot addition, visual inspection)
# Format: physicochemical
# CONDITION: organic solvent or mixture, thermodynamic from solid, 2-propanol (2-PrOH), room temperature
READOUT_LABEL: solubility

SUBSTANCE_SMILES	EXPERIMENTAL_VALUE
CN(C)CCc1c[nH]c2cccc(OP(=O)(O)O)c12	< 1000 µg/mL

----------
# METHOD_NOTES: Estimated solubilities of psilocybin (solvent aliquot addition, visual inspection)
# Assay type: physicochemical
# CONDITION: organic solvent or mixture, thermodynamic from solid, Methanol (MeOH), room temperature

MOLECULE	solubility (mg/mL)
CN(C)CCc1c[nH]c2cccc(OP(=O)(O)O)c12 [psilocybin]	11

----------
# METHOD_NOTES: Estimated solubilities of psilocybin (solvent aliquot addition, visual inspection)
# Format: physicochemical
# CONDITION: organic solvent or mixture, thermodynamic from solid, Acetone, room temperature
READOUT_LABEL: solubility

SUBSTANCE_SMILES	READOUT_LABEL	EXPERIMENTAL_VALUE
CN(C)CCc1c[nH]c2cccc(OP(=O)(O)O)c12	solubility	< 1000 µg/mL
